test_description: Toxicokinetic evaluation of 14-day repeated intragastric administration to SD rats
Assay type: in vivo
condition_description: both sexes, SD, rat, plasma, po, 0.5 mg/kg, repeated intragastric 0.5 mg/kg, Day 7, read-out: Clearance CL/F
metric: CL/F at 7 day (mL/min/kg)
Quick note: give the figure in mL/min/kg, leave out the unit.

Which CL/F at 7 day is listed for CC(C)n1c(=O)cc(N[C@@H](C)c2ccccc2)[nH]c1=O [MYK-461, reference compound] ?
7.46

* * *

test_description: Toxicokinetic evaluation of 14-day repeated intragastric administration to SD rats
Assay type: in vivo
condition_description: both sexes, SD, rat, plasma, po, 0.5 mg/kg, repeated intragastric 0.5 mg/kg, Day 1, read-out: Clearance CL/F
metric: CL/F (mL/min/kg)
Note: unit mL/min/kg is implicit; provide only the numeric part.

# CL/F lookup, item CC(C)n1c(=O)cc(N[C@@H](C)c2ccccc2)[nH]c1=O [MYK-461, reference compound]
12.9
